Test system: SAUR 9218
assay.comment: MIC Test Method, standard agar dilution
Type: cell-based
setup.conditions: agar dilution, Mueller Hinton agar, incubated overnight at 35° C.; lowest concentration that inhibits visible growth; read-out: SAUR 9218 MIC
parameter.measured: MIC (µg/mL)

a = N#Cc1ccc(NC(=O)c2noc3cc(O)ccc23)c(C(=O)O)c1
b = CCCCCC(=O)Nc1cccc2cc(C(=O)Nc3ccc(C#N)cc3C(=O)O)[nH]c12
c = O=C(Nc1ccc(Br)cc1C(=O)O)c1ccc(-c2ccc([N+](=O)[O-])cc2)o1
d = O=C(O)c1cc(Br)ccc1NC(=O)c1noc2ccc(S(=O)(=O)N3CCCC3)cc12
Task item: Could you please order the items by MIC, going from the lowest number to the highest? To answer, arrange all of the labels according to the requested order.
Reply: d, b, a, c
(d: 0.25 µg/mL, b: 0.5 µg/mL, a: 1 µg/mL, c: 64 µg/mL)

I = COCCNc1ccc2onc(C(=O)Nc3ccc(C#N)cc3C(=O)O)c2c1
II = N#Cc1ccc(NC(=O)c2noc3ccc(-c4ccccc4F)cc23)c(C(=O)O)c1
Task item: Of I and II , which one carries the higher reported MIC? Bench note: the answer is the label of the chosen record.
Reply: I
